Target: T1, LdTOPIA (DNA topoisomerase IA) (Leishmania donovani DD8, UniProt A0A3S7WW83 1-809)
T1 sequence: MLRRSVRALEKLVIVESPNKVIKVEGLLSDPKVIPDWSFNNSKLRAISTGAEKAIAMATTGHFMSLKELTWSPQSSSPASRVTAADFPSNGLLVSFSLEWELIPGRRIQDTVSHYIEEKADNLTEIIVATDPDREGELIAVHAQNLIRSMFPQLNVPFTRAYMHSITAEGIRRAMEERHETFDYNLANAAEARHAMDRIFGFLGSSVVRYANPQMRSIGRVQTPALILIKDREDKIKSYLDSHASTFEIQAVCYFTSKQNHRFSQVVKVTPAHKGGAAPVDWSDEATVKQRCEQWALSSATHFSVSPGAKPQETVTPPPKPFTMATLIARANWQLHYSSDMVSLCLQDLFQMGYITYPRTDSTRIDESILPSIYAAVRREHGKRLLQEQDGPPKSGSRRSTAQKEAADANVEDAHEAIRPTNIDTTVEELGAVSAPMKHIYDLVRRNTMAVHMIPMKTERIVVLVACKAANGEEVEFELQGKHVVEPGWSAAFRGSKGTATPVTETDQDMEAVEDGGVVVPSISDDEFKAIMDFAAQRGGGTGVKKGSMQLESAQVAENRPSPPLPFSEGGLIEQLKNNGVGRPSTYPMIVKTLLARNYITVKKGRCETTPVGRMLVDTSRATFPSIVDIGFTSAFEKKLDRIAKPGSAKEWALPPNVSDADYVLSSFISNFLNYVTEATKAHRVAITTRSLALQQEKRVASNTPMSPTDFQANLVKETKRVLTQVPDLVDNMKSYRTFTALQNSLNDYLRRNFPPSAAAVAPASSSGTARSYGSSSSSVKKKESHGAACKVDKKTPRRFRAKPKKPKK
Assay: fluorescence anisotropy; 30 nM DNA, 0.5 mM EDTA; 50 mM Tris pH 7.5, 100 mM NaCl, 0.5 mM DTT, 0.5 mM EDTA, 5% glycerol, 15 min, 25 °C (EMSA gel at 4 °C)
Conditions: protein: recombinant; tags: N-term 7xHis, C-term 6xHis; label: 5' FAM on strand 1; blunt
endpoint-label: Kd (nM)
Write the answer as a number in nM, unit excluded.

[in] For the binder 32-bp dsDNA, FAM (dsDNA) DNA 1: TATTGGGCGCTCTTCCGCTTCCTCGCTCACTG DNA 2: CAGTGAGCGAGGAAGCGGAAGAGCGCCCAATA , give its measured Kd value.
[out] 8.1

All figures here come from paper PMC11021369.
